This collection of values is drawn from patent US12215106B2.

Listing of recorded Kp at 0.08 h by entry.
# METHOD SUMMARY: Plasma pharmacokinetics and brain distribution after single IV, IP and oral administration
# Type: in vivo
# PROTOCOL CONDITIONS: male, C57BL/6, mouse, brain, ip, 10 mg/kg, IP 10 mg/kg, 0.08 hr; read-out: Brain-to-plasma ratio
Structures can show the parent of a compound that is named as a salt.
REPORTED ENDPOINT: Kp at 0.08 h

{"COMPOUND": "Cc1nc2ccccn2c1-c1csc(Nc2ccc3c(c2)OC(F)(F)O3)n1 [Compound 16, hydrochloride]", "NUMERIC RESULT": 0.78}
{"COMPOUND": "[2H]C1([2H])Oc2ccc(Nc3nc(-c4c(C)nc5ccccn45)cs3)cc2O1 [Compound 17, hydrochloride]", "NUMERIC RESULT": 0.61}
{"COMPOUND": "[2H]C([2H])([2H])Oc1ccc(Nc2nc(-c3c(C)nc4ccccn34)cs2)cc1 [Compound 15, hydrochloride]", "NUMERIC RESULT": 0.19}

====

# METHOD SUMMARY: Bi-directional Caco-2 transport assay
# Assay type: in vitro ADME
# PROTOCOL CONDITIONS: human, Caco-2; 5 μM, HBSS pH 7.4, apical to basal; read-out: Papp (A-B)

{"MOLECULE": "CN(C)C(=O)C(CCN1CCC(O)(c2ccc(Cl)cc2)CC1)(c1ccccc1)c1ccccc1 [Loperamide, reference compound]", "Papp A→B at 90 min, 5 μM / nm/s": 16}

====

# METHOD SUMMARY: Plasma pharmacokinetics and brain distribution after single IV, IP and oral administration
# Format: in vivo
# PROTOCOL CONDITIONS: male, C57BL/6, mouse, in vivo, iv, 2 mg/kg, Mean plasma conc.
Structures can show the parent of a compound that is named as a salt.

{"COMPOUND": "[2H]C([2H])([2H])Oc1ccc(Nc2nc(-c3c(C)nc4ccccn34)cs2)cc1 [Compound 15, hydrochloride]", "READOUT UNIT": "ng/mL", "concentration at 1 h": 61.9}
{"COMPOUND": "[2H]C1([2H])Oc2ccc(Nc3nc(-c4c(C)nc5ccccn45)cs3)cc2O1 [Compound 17, hydrochloride]", "READOUT UNIT": "ng/mL", "concentration at 1 h": 9.57}

====

# METHOD SUMMARY: Plasma pharmacokinetics and brain distribution after single IV, IP and oral administration
# Format: in vivo
# PROTOCOL CONDITIONS: male, C57BL/6, mouse, in vivo; plasma, PO 10 mg/kg
# Method: The objective of this study was to investigate the plasma pharmacokinetics and brain distribution of Compound (14 in male C57BL/6 mice following a single intravenous, intraperitoneal and oral administration. A group of sixty-three male mice were divided into three groups (Group 1: 2 mg/kg/IV; Group 2: 10 mg/kg/IP and Group 3: 10 mg/kg/PO) with each group comprising of twenty-one mice. […]
Where a name gives a salt, the structure may show the parent alone.

{"COMPOUND": "[2H]C1([2H])Oc2ccc(Nc3nc(-c4c(C)nc5ccccn45)cs3)cc2O1 [Compound 17, hydrochloride]", "Cmax [ng/mL]": 207}

====

# METHOD SUMMARY: in vitro
# PROTOCOL CONDITIONS: mouse, microsomes, 1 h, 1 μM, pH 7.4
Counter-ions that a name gives are not always drawn.
Listing of recorded % Remaining at 60 min (+NADPH) by entry.
REPORTED ENDPOINT: % Remaining at 60 min (+NADPH)

{"MOLECULE": "COc1c(F)cc(Nc2nc(-c3c(C)nc4ccccn34)cs2)cc1F [Compound 14, hydrochloride]", "RESULT": "13%"}
{"MOLECULE": "[2H]C1([2H])Oc2ccc(Nc3nc(-c4c(C)nc5ccccn45)cs3)cc2O1 [Compound 17, hydrochloride]", "RESULT": "3%"}
{"MOLECULE": "Cc1nc2ccccn2c1-c1csc(Nc2ccc3c(c2)OC(F)(F)O3)n1 [Compound 16, hydrochloride]", "RESULT": "6%"}
{"MOLECULE": "[2H]C([2H])([2H])Oc1ccc(Nc2nc(-c3c(C)nc4ccccn34)cs2)cc1 [Compound 15, hydrochloride]", "RESULT": "48%"}

====

# METHOD SUMMARY: Plasma pharmacokinetics and brain distribution after single IV, IP and oral administration
# Format: in vivo
# PROTOCOL CONDITIONS: male, C57BL/6, mouse; plasma, IV 2 mg/kg
Structures can show the parent of a compound that is named as a salt.
REPORTED ENDPOINT: AUC(0-inf) (ng·h/mL)

{"COMPOUND": "[2H]C1([2H])Oc2ccc(Nc3nc(-c4c(C)nc5ccccn45)cs3)cc2O1 [Compound 17, hydrochloride]", "REPORTED ENDPOINT": "AUC(0-inf)", "READOUT UNIT": "ng·h/mL", "NUMERIC RESULT": 88.2}

====

# METHOD SUMMARY: Plasma pharmacokinetics and brain distribution after single IV, IP and oral administration
# Assay type: in vivo
# PROTOCOL CONDITIONS: male, C57BL/6, mouse, in vivo, iv, 2 mg/kg, Plasma concentration, individual animal
Counter-ions that a name gives are not always drawn.
Listing of recorded concentration at 0.35 h by entry.

{"COMPOUND": "[2H]C1([2H])Oc2ccc(Nc3nc(-c4c(C)nc5ccccn45)cs3)cc2O1 [Compound 17, hydrochloride]", "READOUT UNIT": "ng/mL", "concentration at 0.35 h": 41.5}
{"COMPOUND": "[2H]C([2H])([2H])Oc1ccc(Nc2nc(-c3c(C)nc4ccccn34)cs2)cc1 [Compound 15, hydrochloride]", "READOUT UNIT": "ng/mL", "concentration at 0.35 h": 139}

====

# METHOD SUMMARY: Plasma pharmacokinetics and brain distribution after single IV, IP and oral administration
# Type: in vivo
# PROTOCOL CONDITIONS: male, C57BL/6, mouse, in vivo, ip, 10 mg/kg, Mean brain conc.
Structures can show the parent of a compound that is named as a salt.
Listing of recorded concentration at 0.08 h by entry.

{"COMPOUND": "Cc1nc2ccccn2c1-c1csc(Nc2ccc3c(c2)OC(F)(F)O3)n1 [Compound 16, hydrochloride]", "concentration at 0.08 h / ng/g": 558}
{"COMPOUND": "[2H]C([2H])([2H])Oc1ccc(Nc2nc(-c3c(C)nc4ccccn34)cs2)cc1 [Compound 15, hydrochloride]", "concentration at 0.08 h / ng/g": 43.6}

====

# METHOD SUMMARY: Plasma pharmacokinetics and brain distribution after single IV, IP and oral administration
# Type: in vivo
# PROTOCOL CONDITIONS: male, C57BL/6, mouse, in vivo, iv, 2 mg/kg, Brain concentration, individual animal
Counter-ions that a name gives are not always drawn.

{"COMPOUND": "[2H]C1([2H])Oc2ccc(Nc3nc(-c4c(C)nc5ccccn45)cs3)cc2O1 [Compound 17, hydrochloride]", "concentration at 3 h, ng/g": 0}

====

Listing of recorded concentration at 24 h by entry.
# METHOD SUMMARY: Plasma pharmacokinetics and brain distribution after single IV, IP and oral administration
# Type: in vivo
# PROTOCOL CONDITIONS: male, C57BL/6, mouse, in vivo, ip, 10 mg/kg, Plasma concentration, individual animal
Structures can show the parent of a compound that is named as a salt.

{"COMPOUND": "[2H]C([2H])([2H])Oc1ccc(Nc2nc(-c3c(C)nc4ccccn34)cs2)cc1 [Compound 15, hydrochloride]", "concentration at 24 h": "0 ng/mL"}
{"COMPOUND": "[2H]C1([2H])Oc2ccc(Nc3nc(-c4c(C)nc5ccccn45)cs3)cc2O1 [Compound 17, hydrochloride]", "concentration at 24 h": "0 ng/mL"}
{"COMPOUND": "Cc1nc2ccccn2c1-c1csc(Nc2ccc3c(c2)OC(F)(F)O3)n1 [Compound 16, hydrochloride]", "concentration at 24 h": "0 ng/mL"}

====

# METHOD SUMMARY: Plasma pharmacokinetics and brain distribution after single IV, IP and oral administration
# Assay type: in vivo
# PROTOCOL CONDITIONS: male, C57BL/6, mouse, brain, po, 10 mg/kg, PO 10 mg/kg, 3 hr; read-out: Brain-to-plasma ratio
Where a name gives a salt, the structure may show the parent alone.

{"MOLECULE": "[2H]C([2H])([2H])Oc1ccc(Nc2nc(-c3c(C)nc4ccccn34)cs2)cc1 [Compound 15, hydrochloride]", "Kp at 3 h": 0.7}
{"MOLECULE": "[2H]C1([2H])Oc2ccc(Nc3nc(-c4c(C)nc5ccccn45)cs3)cc2O1 [Compound 17, hydrochloride]", "Kp at 3 h": 0.32}
{"MOLECULE": "Cc1nc2ccccn2c1-c1csc(Nc2ccc3c(c2)OC(F)(F)O3)n1 [Compound 16, hydrochloride]", "Kp at 3 h": 1.73}
